Data credit: the supplement of paper PMC8728848

molecular target: Fuc(a1-3)[Gal3S(b1-4)]Glc; experiment: glycan array binding signal (z-score within array); higher = stronger binding; conditions: glycan notation: IUPAC condensed, linker removed
The sample as a whole holds a higher share of the strongest signals than the screen did.
Label scheme for glycan array binding signal (z-score): lower than -0.2 is Not satisfied, -0.2 and above is Satisfied.

Determine whether this binder has glycan array binding signal (z-score) no lower than -0.2: AT1G15820(NC) (Arabidopsis thaliana) (protein) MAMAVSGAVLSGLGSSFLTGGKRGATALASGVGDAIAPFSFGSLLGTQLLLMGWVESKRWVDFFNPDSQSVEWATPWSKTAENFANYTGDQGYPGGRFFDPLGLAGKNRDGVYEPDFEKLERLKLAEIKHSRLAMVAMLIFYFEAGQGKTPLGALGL
Not satisfied

Decide: is the reported value of glycan array binding signal (z-score) for EULS2 M3 (Oryza sativa) (protein) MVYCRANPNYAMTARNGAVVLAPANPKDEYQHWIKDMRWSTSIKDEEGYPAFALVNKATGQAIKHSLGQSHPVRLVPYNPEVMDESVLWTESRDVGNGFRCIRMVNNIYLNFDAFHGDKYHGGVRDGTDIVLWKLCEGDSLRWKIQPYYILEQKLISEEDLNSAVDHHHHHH equal to or greater than -0.2?
Satisfied

Check if glycan array binding signal (z-score) >= -0.2 (inclusive). Item: Annexin-A1 (Mus musculus), P10107 (protein) MAMVSEFLKQARFLENQEQEYVQAVKSYKGGPGSAVSPYPSFNVSSDVAALHKAIMVKGVDEATIIDILTKRTNAQRQQIKAAYLQENGKPLDEVLRKALTGHLEEVVLAMLKTPAQFDADELRGAMKGLGTDEDTLIEILTTRSNEQIREINRVYREELKRDLAKDITSDTSGDFRKALLALAKGDRCQDLSVNQDLADTDARALYEAGERRKGTDVNVFTTILTSRSFPHLRRVFQNYGKYSQHDMNKALDLELKGDIEKCLTTIVKCATSTPAFFAEKLYEAMKGAGTRHKALIRIMVSRSEIDMNEIKVFYQKKYGISLCQAILDETKGDYEKILVALCGGN
Satisfied

Identify whether the reported glycan array binding signal (z-score) of the following binder is -0.2 or greater: FBG4 (Homo sapiens), Q96EF6 (protein) MGARLSRRRLPADPSLALDALPPELLVQVLSHVPPRSLVTRCRPVCRAWRDIVDGPTVWLLQLARDRSAEGRALYAVAQRCLPSNEDKEEFPLCALARYCLRAPFGRNLIFNSCGEQGFRGWEVEHGGNGWAIEKNLTPVPGAPSQTCFVTSFEWCSKRQLVDLVMEGVWQELLDSAQIEICVADWWGARENCGCVYQLRVRLLDVYEKEVVKFSASPDPVLQWTERGCRQVSHVFTNFGKGIRYVSFEQYGRDVSSWVGHYGALVTHSSVRVRIRLS
Not satisfied

Check the entry Banana lectin (Musa acuminata) (protein) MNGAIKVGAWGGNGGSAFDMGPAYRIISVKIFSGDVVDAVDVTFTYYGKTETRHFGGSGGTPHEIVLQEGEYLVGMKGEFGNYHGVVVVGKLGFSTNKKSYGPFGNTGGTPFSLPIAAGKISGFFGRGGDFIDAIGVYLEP : does glycan array binding signal (z-score) equal or exceed -0.2?
Satisfied

Assess whether reported glycan array binding signal (z-score) for RobpsCRA (Robinia pseudoacacia) (protein) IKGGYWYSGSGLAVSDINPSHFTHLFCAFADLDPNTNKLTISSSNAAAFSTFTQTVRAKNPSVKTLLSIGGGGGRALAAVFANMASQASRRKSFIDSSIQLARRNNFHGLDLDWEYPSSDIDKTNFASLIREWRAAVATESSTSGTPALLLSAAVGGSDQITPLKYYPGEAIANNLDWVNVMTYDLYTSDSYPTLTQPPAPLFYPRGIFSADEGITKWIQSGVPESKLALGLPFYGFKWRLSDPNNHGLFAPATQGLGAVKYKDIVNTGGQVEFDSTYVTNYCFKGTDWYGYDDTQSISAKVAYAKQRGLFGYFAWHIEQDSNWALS sits at -0.2 or higher.
Not satisfied

Exam item: decide whether the reported glycan array binding signal (z-score) for Mermaid1 (Stilbonema majum) (protein) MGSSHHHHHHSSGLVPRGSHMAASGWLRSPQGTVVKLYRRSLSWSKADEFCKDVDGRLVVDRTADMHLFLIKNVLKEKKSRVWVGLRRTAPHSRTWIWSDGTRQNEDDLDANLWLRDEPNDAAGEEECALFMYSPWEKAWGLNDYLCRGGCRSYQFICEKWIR is at least -0.2.
Satisfied
